# TGT: human CD33 P132V (human, UniProt P20138 18-364)
# Sequence (P20138 18-364 P132V limits assumed): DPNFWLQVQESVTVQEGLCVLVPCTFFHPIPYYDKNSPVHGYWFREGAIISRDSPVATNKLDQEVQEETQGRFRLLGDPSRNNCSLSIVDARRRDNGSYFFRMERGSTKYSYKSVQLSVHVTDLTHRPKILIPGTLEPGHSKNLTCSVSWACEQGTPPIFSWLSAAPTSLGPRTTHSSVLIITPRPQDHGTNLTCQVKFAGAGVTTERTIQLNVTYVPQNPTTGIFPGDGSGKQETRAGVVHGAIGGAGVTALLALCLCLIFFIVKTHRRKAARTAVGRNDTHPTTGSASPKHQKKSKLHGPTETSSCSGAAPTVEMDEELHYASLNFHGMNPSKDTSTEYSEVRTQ
# ASSAY EXPLANATION: flow cytometry, HEK293-T, IgG;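 note: CD33 point mutants transiently expressed, antibody binding measured by fluorescence in duplicate, background subtracted and scaled to binding on wild-type CD33 as 100%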
Consider the following binders and their measured Mean % WT Binding readings.
Answer in % WT binding, number only, no unit symbol.

Answered examples (3):
BINDER	QUANTITY UNIT	Mean % WT Binding
Refmab #1 (antibody, human IgG1, V domains shown, tested in IgG format; also called hP67.6) VH: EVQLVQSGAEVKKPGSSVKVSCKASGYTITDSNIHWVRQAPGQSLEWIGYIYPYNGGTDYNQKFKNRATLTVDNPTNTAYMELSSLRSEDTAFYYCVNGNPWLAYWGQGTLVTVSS VL: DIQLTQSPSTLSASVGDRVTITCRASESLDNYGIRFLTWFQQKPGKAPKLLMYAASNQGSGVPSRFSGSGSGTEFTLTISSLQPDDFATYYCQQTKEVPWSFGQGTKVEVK	% WT binding	105
Refmab #2 (antibody, human IgG1, V domains shown, tested in IgG format) VH: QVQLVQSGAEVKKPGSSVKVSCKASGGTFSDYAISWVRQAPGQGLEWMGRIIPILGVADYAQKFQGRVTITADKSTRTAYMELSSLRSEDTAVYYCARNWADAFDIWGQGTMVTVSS VL: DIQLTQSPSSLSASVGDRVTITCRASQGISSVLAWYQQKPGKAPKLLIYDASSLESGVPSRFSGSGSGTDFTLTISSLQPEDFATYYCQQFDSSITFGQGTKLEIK	% WT binding	102
Refmab #3 (antibody, human IgG1, V domains shown, tested in IgG format) VH: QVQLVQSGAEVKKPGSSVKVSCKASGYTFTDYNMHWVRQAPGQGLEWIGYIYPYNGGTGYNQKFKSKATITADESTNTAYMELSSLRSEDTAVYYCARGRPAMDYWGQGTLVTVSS VL: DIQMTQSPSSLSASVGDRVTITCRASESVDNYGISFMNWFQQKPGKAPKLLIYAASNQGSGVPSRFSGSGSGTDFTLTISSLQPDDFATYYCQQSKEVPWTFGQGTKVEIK	% WT binding	86.6

API: the following record is the query input.
The reported Mean % WT Binding of the binder Refmab #4 (antibody, human IgG1, V domains shown, tested in IgG format) VH: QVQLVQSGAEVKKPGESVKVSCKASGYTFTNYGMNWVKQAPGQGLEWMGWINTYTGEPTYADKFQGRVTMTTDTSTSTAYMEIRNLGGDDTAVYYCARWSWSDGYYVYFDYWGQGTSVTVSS VL: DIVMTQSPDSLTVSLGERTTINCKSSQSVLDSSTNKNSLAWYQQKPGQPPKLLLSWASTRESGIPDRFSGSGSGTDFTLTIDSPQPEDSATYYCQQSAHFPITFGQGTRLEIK was 94.7

// data source = patent US20260242735A1
